Test system: Staphylococcus epidermidis
procedure summary: Antibacterial activity against Staphylococcus epidermidis RP62A 6 hrs biofilm after 16 hrs by microtiter plate method
Format: functional
measure name: Activity (µM)
The response must be a number in µM with no trailing unit.

# item smiles, Activity (µM)
rows = [
    ("CCc1ccccc1/N=C1\\S/C(=C\\c2ccc(OCC(=O)O)cc2)C(=O)N1c1ccccc1CC", 100),
    ("CCc1ccccc1/N=C1\\S/C(=C\\c2ccc(-c3cccc(C(=O)O)c3)o2)C(=O)N1c1ccccc1CC", 25),
]

Now take the following compound into account.
What reported Activity corresponds to CCc1ccccc1/N=C1\S/C(=C\c2ccc(OCC(=O)O)c(OC)c2)C(=O)N1c1ccccc1CC on Staphylococcus epidermidis?
100
